Tested on: ECHCG (Barnyardgrass)
Test: Postemergence herbicidal evaluation
Assay type: in vivo, Echinochloa crus-galli
Details: Rate 0.0630 kg/ha
Postemergence herbicidal rating ECHCG by entry:
Answer using only a numeral; do not append any unit.

# return recorded Postemergence herbicidal rating ECHCG for entry COC(=O)CCN1C(=O)CSC1=Nc1cc(-n2c(=O)cc(C(F)(F)F)n(C)c2=O)c(F)cc1Cl [Compound 28]
9.0

# return recorded Postemergence herbicidal rating ECHCG for entry Cn1c(C(F)(F)F)cc(=O)n(-c2cc(N=C3SCC(=O)N3[C@@H](Cc3ccccc3)C(=O)O)c(Cl)cc2F)c1=O [Compound 53]
9.0

# return recorded Postemergence herbicidal rating ECHCG for entry Cn1c(C(F)(F)F)cc(=O)n(-c2cc(N=C3SCC(=O)N3CCC(=O)O)c(Cl)cc2F)c1=O [Compound 31]
5.0

Then this compound:
# return recorded Postemergence herbicidal rating ECHCG for entry CCOP(=O)(CN1C(=O)CSC1=Nc1cc(-n2c(=O)cc(C(F)(F)F)n(C)c2=O)c(F)cc1Cl)OCC [Compound 35]
1.0

* * *

Tested on: CASOB (Sicklepod)
Assay: Preemergence herbicidal evaluation
Type: in vivo, Cassia obtusifolia
Conditions: rate 0.1250 kg/ha; rated 4-5 weeks after treatment
property-name: Preemergence herbicidal rating CASOB
Answer using only a numeral; do not append any unit.

// worked examples, Preemergence herbicidal rating CASOB included
# return recorded Preemergence herbicidal rating CASOB for entry CCOC(=O)CN1C(=O)C(CC(=O)OC(C)C)SC1=Nc1cc(-n2c(=O)cc(C(F)(F)F)n(C)c2=O)c(F)cc1Cl (centres unmarked)
1.0

# return recorded Preemergence herbicidal rating CASOB for entry COC(=O)[C@H](Cc1ccc([N+](=O)[O-])cc1)N1C(=O)CSC1=Nc1cc(-n2c(=O)cc(C(F)(F)F)n(C)c2=O)c(F)cc1Cl
0.0

# return recorded Preemergence herbicidal rating CASOB for entry C=CCN1C(=O)C(CC(=O)O)SC1=Nc1cc(-n2c(=O)cc(C(F)(F)F)n(C)c2=O)c(F)cc1Cl (centres unmarked)
1.0

# return recorded Preemergence herbicidal rating CASOB for entry Cn1c(C(F)(F)F)cc(=O)n(-c2cc(/N=C3/SCC(=O)N3CC(=O)O)c(Cl)cc2F)c1=O
1.0

# return recorded Preemergence herbicidal rating CASOB for entry CCOC(=O)CN1C(=O)CSC1=Nc1cc(N2C(=O)C3=C(CCCC3)C2=O)c(F)cc1Cl
0.0

# return recorded Preemergence herbicidal rating CASOB for entry C=CCN1C(=O)CSC1=Nc1cc(-n2c(=O)cc(C(F)(F)F)n(C)c2=O)c(F)cc1Cl
0.0

# return recorded Preemergence herbicidal rating CASOB for entry CCOC(=O)CN1C(=O)C[S+]([O-])/C1=N/c1cc(-n2c(=O)cc(C(F)(F)F)n(C)c2=O)c(F)cc1Cl (centres unmarked)
0.0

# return recorded Preemergence herbicidal rating CASOB for entry C=CCN1C(=O)C(CC(=O)OC(C)C)SC1=Nc1cc(-n2c(=O)cc(C(F)(F)F)n(C)c2=O)c(F)cc1Cl (centres unmarked)
0.5

Further cases:
# return recorded Preemergence herbicidal rating CASOB for entry CCOC(=O)CN1C(=O)C(CC(=O)O)O/C1=N/c1cc(-n2c(=O)cc(C(F)(F)F)n(C)c2=O)c(F)cc1Cl (centres unmarked)
9.0

# return recorded Preemergence herbicidal rating CASOB for entry Cn1c(C(F)(F)F)cc(=O)n(-c2cc(N=C3SCC(=O)N3CCC(=O)O)c(Cl)cc2F)c1=O
1.0

# return recorded Preemergence herbicidal rating CASOB for entry CCOC(=O)CN1C(=O)C(CC(=O)OCc2ccccc2)OC1=Nc1cc(-n2c(=O)cc(C(F)(F)F)n(C)c2=O)c(F)cc1Cl (centres unmarked)
0.0

# return recorded Preemergence herbicidal rating CASOB for entry CCOC(=O)CN1C(=O)C(Cc2ccccc2OC(C)C(=O)O)S/C1=N/c1cc(-n2c(=O)cc(C(F)(F)F)n(C)c2=O)c(F)cc1Cl (centres unmarked)
3.0

# return recorded Preemergence herbicidal rating CASOB for entry Cn1c(C(F)(F)F)cc(=O)n(-c2cc(N=C3SCC(=O)N3[C@@H](Cc3ccccc3)C(=O)O)c(Cl)cc2F)c1=O
1.0
